The values you see were collected from paper PMC12610274.

Biological target: CTSB (Homo sapiens, UniProt P07858)
Construct: purchased R&D Systems
Experiment: Human recombinant cathepsins isolated enzyme assay, CTSB
Assay type: biochemical
Conditions: read-out: CTSB Enz (IC50: μM)
endpoint.name: IC50
// unit must come after the numeric part

**Q:** Can you look up the measured IC50 of C[C@@H]1C[C@H]2OC(=O)[C@@]3(C)CCC[C@@](C)([C@@H]23)[C@@]1(O)CCc1ccoc1 for me?
**A:** 9.8 µM

###

Give IC50 for every item shown.
Molecular target: UniProt:P53634
Assay: Human recombinant CTSC isolated enzyme assay
Assay type: biochemical
Parameters: purchased R&D Systems
Conditions: human recombinant CTSC, cell-free, 12-point dose-response; read-out: CTSC Enz (IC50: nM)
Numbers only, in nM.

>>> measured_result("CN1C2CC(O)CC1C1OC12 (centres unmarked) [Scopine, scopine]")
135
>>> measured_result("N[C@H]1CONC1=O [L-Cycloserine, L-cycloserine]")
1100
>>> measured_result("CC1(C)CC[C@]2(C(=O)O)[C@H](O)C[C@]3(C)C(=CC[C@@H]4[C@@]5(C)CC[C@H](O)[C@@](C)(C=O)[C@@H]5CC[C@]43C)[C@@H]2C1 [Quillaic acid, quillaic acid]")
125
>>> measured_result("C[C@@H]1C[C@H]2OC(=O)[C@@]3(C)CCC[C@@](C)([C@@H]23)[C@@]1(O)CCc1ccoc1 [Marrubiin, marrubiin]")
57.5

API: the following record is the query input.
**Q:** Need IC50 of CC(=O)OCC1=CO[C@@H](OC(=O)CC(C)C)[C@H]2C1=C[C@H](OC(=O)CC(C)(C)OC(C)=O)[C@]21CO1 [Acevaltrate, acevaltrate] , thanks.
**A:** 1050

###

Target: CTSL (Homo sapiens)
Construct: purchased R&D Systems
Sequence (P07711 114-333): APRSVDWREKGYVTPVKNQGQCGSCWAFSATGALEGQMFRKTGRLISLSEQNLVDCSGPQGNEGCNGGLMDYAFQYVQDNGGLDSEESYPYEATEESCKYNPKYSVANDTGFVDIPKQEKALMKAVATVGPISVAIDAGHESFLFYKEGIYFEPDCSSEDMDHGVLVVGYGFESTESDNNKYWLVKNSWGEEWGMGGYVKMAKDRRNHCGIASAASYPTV
Assay: Human recombinant cathepsins isolated enzyme assay, CTSL
Format: biochemical
Settings: read-out: CTSL Enz (IC50: μM)
endpoint.name: IC50 (µM)
Answers are plain numbers, in µM.

**Q:** # lookup: IC50 of C[C@@H]1C[C@H]2OC(=O)[C@@]3(C)CCC[C@@](C)([C@@H]23)[C@@]1(O)CCc1ccoc1 [Marrubiin, marrubiin]
**A:** 4.4

###

Target: PR3 (Homo sapiens)
Construct: purchased MedChemExpress
Sequence (P24158 28-256): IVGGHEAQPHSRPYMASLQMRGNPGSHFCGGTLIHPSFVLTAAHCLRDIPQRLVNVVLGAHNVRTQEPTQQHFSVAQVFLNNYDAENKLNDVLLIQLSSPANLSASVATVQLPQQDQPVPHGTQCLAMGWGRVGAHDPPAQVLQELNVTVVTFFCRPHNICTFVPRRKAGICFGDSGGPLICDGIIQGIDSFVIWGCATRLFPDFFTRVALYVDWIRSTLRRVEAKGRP
Assay: Recombinant NSPs isolated enzyme assay, PR3
Format: biochemical
Settings: read-out: PR3 Enz (IC50: μM)
Source text: The protocol for evaluating the inhibitory potency of compounds against other cathepsins referred to the CTSC activity assay. Recombinant human CTSB, CTSL, CTSS and CTSK for testing were also purchased from R&D Systems Biotechnology Company. Recombinant human Cat G, NE, and PR3 For testing were purchased from MedChemExpress. […]
endpoint.name: IC50

**Q:** Which IC50 is reported with PR3 (Homo sapiens) for this entry: C[C@@H]1C[C@H]2OC(=O)[C@@]3(C)CCC[C@@](C)([C@@H]23)[C@@]1(O)CCc1ccoc1 ?
**A:** > 10 µM

###

Hi there, I'd appreciate the recorded IC50 at 24 h for every entry that follows.
Test: Cytotoxicity assay, U937 cell line
Type: cell-based
Conditions: human, U937 cells

>>> measured_result("CN1C2CC(O)CC1C1OC12 (stereo not drawn)")
"> 10 µM"
>>> measured_result("C[C@@H]1C[C@H]2OC(=O)[C@@]3(C)CCC[C@@](C)([C@@H]23)[C@@]1(O)CCc1ccoc1")
"> 10 µM"
>>> measured_result("CC(=O)OCC1=CO[C@@H](OC(=O)CC(C)C)[C@H]2C1=C[C@H](OC(=O)CC(C)(C)OC(C)=O)[C@]21CO1 [Acevaltrate, acevaltrate]")
"> 10 µM"
>>> measured_result("CC1(C)CC[C@]2(C(=O)O)[C@H](O)C[C@]3(C)C(=CC[C@@H]4[C@@]5(C)CC[C@H](O)[C@@](C)(C=O)[C@@H]5CC[C@]43C)[C@@H]2C1")
"> 10 µM"
>>> measured_result("N[C@H]1CONC1=O")
"> 10 µM"

Now look at this one.
**Q:** Requested field: IC50 at 24 h. Item: Cn1c(=O)oc2ccc(-c3ccc(C[C@@H](C#N)NC(=O)[C@@H]4CNCCCO4)cc3)cc21 [AZD7986, reference compound]
**A:** > 10 µM

###

Molecular target: intracellular CTSC (Homo sapiens)
Construct: endogenous in cells; host or cells: U937
Sequence (P53634 25-463): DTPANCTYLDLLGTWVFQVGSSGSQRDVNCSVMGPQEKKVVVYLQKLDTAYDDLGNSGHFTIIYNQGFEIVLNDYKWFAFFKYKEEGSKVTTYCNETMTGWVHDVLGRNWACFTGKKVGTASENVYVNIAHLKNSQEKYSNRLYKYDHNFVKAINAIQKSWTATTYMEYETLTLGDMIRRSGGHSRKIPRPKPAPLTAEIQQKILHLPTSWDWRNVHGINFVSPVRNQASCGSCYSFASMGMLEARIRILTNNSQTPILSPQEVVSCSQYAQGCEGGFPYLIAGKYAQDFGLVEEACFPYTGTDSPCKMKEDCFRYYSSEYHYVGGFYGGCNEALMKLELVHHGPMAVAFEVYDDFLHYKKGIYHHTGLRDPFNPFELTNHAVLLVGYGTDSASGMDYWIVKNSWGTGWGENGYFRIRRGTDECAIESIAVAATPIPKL
Experiment: CTSC cell-based assay using the U937 cell line
Details: read-out: Cell-Based Enz (IC50: nM)
Hi there, I'd appreciate the recorded IC50 for every entry that follows.
One number for each entry, in nM.

For orientation, consider the following solved cases.
>>> measured_result("C[C@@H]1C[C@H]2OC(=O)[C@@]3(C)CCC[C@@](C)([C@@H]23)[C@@]1(O)CCc1ccoc1")
51.6
>>> measured_result("CN1C2CC(O)CC1C1OC12 (centres unmarked)")
337

Would you kindly look at the next entry?
**Q:** Param readout = IC50; param system = intracellular CTSC (Homo sapiens); param query = CC(=O)OCC1=CO[C@@H](OC(=O)CC(C)C)[C@H]2C1=C[C@H](OC(=O)CC(C)(C)OC(C)=O)[C@]21CO1 [Acevaltrate, acevaltrate] ; response: value
**A:** 702

###

Target: CTSK (Homo sapiens, UniProt P43235)
Construct: purchased R&D Systems
Sequence (P43235 115-329): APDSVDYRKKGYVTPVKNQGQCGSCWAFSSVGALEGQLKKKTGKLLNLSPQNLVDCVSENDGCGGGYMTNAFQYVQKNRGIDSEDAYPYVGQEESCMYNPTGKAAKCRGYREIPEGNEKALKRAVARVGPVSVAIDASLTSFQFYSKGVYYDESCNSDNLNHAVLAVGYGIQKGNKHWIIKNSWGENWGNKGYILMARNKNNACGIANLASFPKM
Test: Human recombinant cathepsins isolated enzyme assay, CTSK
Format: biochemical
Conditions: read-out: CTSK Enz (IC50: μM)
endpoint.name: IC50

**Q:** // fetch CTSK (Homo sapiens, UniProt P43235) IC50 for C[C@@H]1C[C@H]2OC(=O)[C@@]3(C)CCC[C@@](C)([C@@H]23)[C@@]1(O)CCc1ccoc1
**A:** > 5 µM

###

Molecular target: CTSS (Homo sapiens, UniProt P25774)
Construct: purchased R&D Systems
Sequence (P25774 115-331): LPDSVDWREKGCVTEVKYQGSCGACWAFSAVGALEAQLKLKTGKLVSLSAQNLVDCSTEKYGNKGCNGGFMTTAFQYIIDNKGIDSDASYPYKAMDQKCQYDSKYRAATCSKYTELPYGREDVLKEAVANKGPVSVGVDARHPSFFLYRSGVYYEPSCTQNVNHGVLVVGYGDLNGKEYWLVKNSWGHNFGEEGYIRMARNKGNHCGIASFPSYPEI
Assay: Human recombinant cathepsins isolated enzyme assay, CTSS
Type: biochemical
Conditions: read-out: CTSS Enz (IC50: μM)
endpoint.name: IC50

**Q:** Which value of IC50 has been reported for C[C@@H]1C[C@H]2OC(=O)[C@@]3(C)CCC[C@@](C)([C@@H]23)[C@@]1(O)CCc1ccoc1 [Marrubiin, marrubiin] in the records?
**A:** > 5 µM

###

Biological target: Dipeptidyl Peptidase 8 (Homo sapiens)
Sequence (Q6V1X1 whole entry, species assumed): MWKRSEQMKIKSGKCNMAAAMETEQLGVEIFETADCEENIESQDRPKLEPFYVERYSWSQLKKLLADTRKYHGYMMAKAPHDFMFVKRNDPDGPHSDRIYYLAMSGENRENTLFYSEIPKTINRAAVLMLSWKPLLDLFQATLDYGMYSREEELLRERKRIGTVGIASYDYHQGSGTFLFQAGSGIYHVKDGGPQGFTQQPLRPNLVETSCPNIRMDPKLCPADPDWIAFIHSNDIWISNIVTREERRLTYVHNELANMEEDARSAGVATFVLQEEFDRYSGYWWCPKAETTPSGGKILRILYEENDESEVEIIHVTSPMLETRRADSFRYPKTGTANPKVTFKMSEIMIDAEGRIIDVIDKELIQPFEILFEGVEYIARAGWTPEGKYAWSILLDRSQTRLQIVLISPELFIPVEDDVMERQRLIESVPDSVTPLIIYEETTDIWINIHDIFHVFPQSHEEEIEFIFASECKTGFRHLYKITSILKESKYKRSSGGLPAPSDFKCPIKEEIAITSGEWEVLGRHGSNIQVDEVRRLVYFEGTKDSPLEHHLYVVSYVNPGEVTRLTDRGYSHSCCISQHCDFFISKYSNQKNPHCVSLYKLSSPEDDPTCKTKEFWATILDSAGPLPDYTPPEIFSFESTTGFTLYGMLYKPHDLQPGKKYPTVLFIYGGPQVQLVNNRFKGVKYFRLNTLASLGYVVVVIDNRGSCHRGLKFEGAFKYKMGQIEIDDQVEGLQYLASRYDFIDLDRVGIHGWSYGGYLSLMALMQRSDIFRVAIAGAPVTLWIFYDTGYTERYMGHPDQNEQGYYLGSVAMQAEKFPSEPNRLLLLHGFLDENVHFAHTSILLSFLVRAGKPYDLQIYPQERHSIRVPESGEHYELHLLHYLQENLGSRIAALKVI
Assay: Recombinant dipeptidyl peptidases isolated enzyme assay, DPP8
Type: biochemical
Settings: read-out: Dipeptidyl Peptidase 8 Enz (IC50: μM)
endpoint.name: IC50

**Q:** IC50 lookup needed for C[C@@H]1C[C@H]2OC(=O)[C@@]3(C)CCC[C@@](C)([C@@H]23)[C@@]1(O)CCc1ccoc1 , thanks.
**A:** > 10 µM

###

Biological target: NE (Homo sapiens, UniProt P08246)
Construct: purchased MedChemExpress
Sequence (P08246 30-267): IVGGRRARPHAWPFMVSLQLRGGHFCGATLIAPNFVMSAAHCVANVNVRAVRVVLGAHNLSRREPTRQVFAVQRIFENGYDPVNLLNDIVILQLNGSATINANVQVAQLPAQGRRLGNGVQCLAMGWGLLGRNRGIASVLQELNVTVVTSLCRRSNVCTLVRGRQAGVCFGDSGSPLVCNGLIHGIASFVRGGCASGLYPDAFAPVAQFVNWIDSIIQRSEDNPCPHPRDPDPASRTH
Assay: Recombinant NSPs isolated enzyme assay, NE
Format: biochemical
Details: read-out: NE Enz (IC50: μM)
endpoint.name: IC50

**Q:** Given C[C@@H]1C[C@H]2OC(=O)[C@@]3(C)CCC[C@@](C)([C@@H]23)[C@@]1(O)CCc1ccoc1 [Marrubiin, marrubiin] , state its recorded IC50.
**A:** > 10 µM
